# TARGET OF ASSAY: polyclonal antibodies in mouse sera specific for human PCSK9 aa 153-162 or aa 153-165
# PROTOCOL TEXT: competition ELISA, 20 ug peptide with sera, plate coated with m2 (competitor)
OBSERVATION TYPE: % Competition compared to the related control group (%)

[[record]]
binder = "SIPWNFERITPPR"
value_measured = 79

[[record]]
binder = "SIPWNGERIT"
value_measured = 52

[[record]]
binder = "SIPWNLERIL"
value_measured = 56

[[record]]
binder = "SVPWNLEKLT"
value_measured = 11


Values compiled from patent US20170112908A1.
